Target under test: DNA gyrase subunit A/DNA gyrase subunit B (Mycobacterium tuberculosis (strain ATCC 25618 / H37Rv), UniProt P9WG45+P9WG47)
Sequence (P9WG45 whole entry): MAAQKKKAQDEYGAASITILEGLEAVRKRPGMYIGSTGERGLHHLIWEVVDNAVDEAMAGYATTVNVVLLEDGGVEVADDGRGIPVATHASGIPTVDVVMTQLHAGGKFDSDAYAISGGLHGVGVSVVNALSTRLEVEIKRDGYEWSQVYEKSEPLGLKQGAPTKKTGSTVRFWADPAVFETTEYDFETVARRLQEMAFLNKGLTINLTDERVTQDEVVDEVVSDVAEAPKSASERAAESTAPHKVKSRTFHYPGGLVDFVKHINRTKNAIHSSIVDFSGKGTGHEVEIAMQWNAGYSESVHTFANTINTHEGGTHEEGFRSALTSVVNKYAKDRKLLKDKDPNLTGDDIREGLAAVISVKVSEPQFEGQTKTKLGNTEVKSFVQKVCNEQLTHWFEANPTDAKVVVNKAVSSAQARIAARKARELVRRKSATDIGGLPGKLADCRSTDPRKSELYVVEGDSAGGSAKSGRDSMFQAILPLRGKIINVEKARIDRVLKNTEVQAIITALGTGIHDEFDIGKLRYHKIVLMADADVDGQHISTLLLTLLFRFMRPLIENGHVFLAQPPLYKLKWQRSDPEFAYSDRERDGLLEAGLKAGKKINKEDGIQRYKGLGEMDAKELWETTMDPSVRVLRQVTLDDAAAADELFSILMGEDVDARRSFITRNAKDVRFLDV
Sequence (P9WG47 whole entry): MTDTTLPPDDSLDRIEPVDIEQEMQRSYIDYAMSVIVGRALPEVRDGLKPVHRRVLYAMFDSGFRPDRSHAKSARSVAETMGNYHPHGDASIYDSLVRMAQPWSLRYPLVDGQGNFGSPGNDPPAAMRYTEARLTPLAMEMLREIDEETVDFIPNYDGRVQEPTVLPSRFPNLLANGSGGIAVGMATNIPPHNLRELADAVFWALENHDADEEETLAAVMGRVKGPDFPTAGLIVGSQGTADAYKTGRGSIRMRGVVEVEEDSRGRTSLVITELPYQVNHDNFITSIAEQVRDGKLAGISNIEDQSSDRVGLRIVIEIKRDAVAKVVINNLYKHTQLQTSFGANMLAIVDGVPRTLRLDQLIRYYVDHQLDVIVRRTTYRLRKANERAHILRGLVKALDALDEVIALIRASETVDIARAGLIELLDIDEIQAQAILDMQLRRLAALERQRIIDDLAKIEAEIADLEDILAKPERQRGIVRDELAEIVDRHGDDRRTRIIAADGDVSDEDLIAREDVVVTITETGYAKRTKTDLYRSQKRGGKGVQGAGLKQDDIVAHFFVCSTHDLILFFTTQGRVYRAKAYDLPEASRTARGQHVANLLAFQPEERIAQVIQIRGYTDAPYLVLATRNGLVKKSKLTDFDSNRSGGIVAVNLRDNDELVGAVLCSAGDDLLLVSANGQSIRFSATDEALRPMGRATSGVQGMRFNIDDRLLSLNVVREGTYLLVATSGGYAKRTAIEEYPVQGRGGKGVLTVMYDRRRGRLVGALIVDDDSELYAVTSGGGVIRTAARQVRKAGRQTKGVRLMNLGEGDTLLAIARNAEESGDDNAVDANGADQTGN
Measurement description: Inhibition of Mycobacterium tuberculosis H37Rv DNA gyrase
Assay endpoint: IC50 (µM)
Give just the numeric value; µM need not be written.

C[C@@H]1CN2c3c(cc4c(N5CC[C@H](O)C5)noc4c3F)CC3(C(=O)NC(=O)NC3=O)[C@H]2[C@H](C)O1 20

Ask: Quick one: IC50 for C[C@@H]1CN2c3c(cc4c(N5C[C@@H](O)[C@H](O)C5)noc4c3F)CC3(C(=O)NC(=O)NC3=O)[C@H]2[C@H](C)O1 ?
Result: 16

Ask: Follow-up entry: CO[C@H]1CCN(c2noc3c(F)c4c(cc23)CC2(C(=O)NC(=O)NC2=O)[C@H]2[C@H](C)O[C@H](C)CN42)C1
Result: 77

====

Below: a set of entries, each annotated with reported MIC.
Tested on: Escherichia coli
Measurement description: microbe, parasite or virus in culture
Experimental parameters: ATTC 25922, 192 h

Example results:
C[C@@H]1CN2c3c(cc4c(N5C(=O)OC[C@@H]5C)noc4c3F)CC3(C(=O)NC(=O)NC3=O)[C@H]2[C@H](C)N1CC#N > 125 µM
Cc1nnc(-c2noc3c(F)c4c(cc23)CC2(C(=O)NC(=O)NC2=O)[C@H]2[C@H](C)N(C#N)[C@H](C)CN42)o1 > 125 µM
C[C@@H]1CN2c3c(cc4c(OC[C@@H]5CCC(=O)N5)noc4c3F)CC3(C(=O)NC(=O)NC3=O)[C@H]2[C@H](C)N1C#N > 125 µM

Ask: Query for Escherichia coli: what MIC does the record show for C[C@H]1C[C@@H](C)[C@H]2N(C1)c1c(cc3c(OC[C@@H]4CCC(=O)N4)noc3c1F)CC21C(=O)NC(=O)NC1=O ?
Result: 63 µM

Ask: Now this one: Cc1nnc(-c2noc3c(F)c4c(cc23)CC2(C(=O)NC(=O)NC2=O)[C@H]2[C@H](C)O[C@H](C)CN42)o1
Result: 31 µM

Ask: Query C[C@@H]1CN2c3c(cc4c(N5CC[C@H](C(=O)O)C5)noc4c3F)CC3(C(=O)NC(=O)NC3=O)[C@H]2[C@H](C)O1 next
Result: > 125 µM

====

Test system: Escherichia coli
Measurement description: microbe, parasite or virus in culture
Experimental parameters: ATTC 25922, 192 h
Assay endpoint: MIC

# count of solved cases: 2
C[C@@H]1CN2c3c(cc4c(N5CC[C@H](O)C5)noc4c3F)CC3(C(=O)NC(=O)NC3=O)[C@H]2[C@H](C)O1 > 125 µM
C[C@@H]1CN2c3c(cc4c(OC[C@H]5CCC(=O)O5)noc4c3F)CC3(C(=O)NC(=O)NC3=O)[C@H]2[C@H](C)O1 > 250 µM

Ask: Which MIC value is on record for C[C@@H]1CN2c3c(cc4c(-n5cncn5)noc4c3F)CC3(C(=O)NC(=O)NC3=O)[C@H]2[C@H](C)N1C#N ?
Result: 63 µM

Ask: Would you mind doing C[C@@H]1CN2c3c(cc4c(N5C[C@H](O)[C@@H](O)C5)noc4c3F)CC3(C(=O)NC(=O)NC3=O)[C@H]2[C@H](C)O1 as well?
Result: > 125 µM

Ask: How about this compound: C[C@@H]1CN2c3c(cc4c(N5CC[C@H](N)C5)noc4c3F)CC3(C(=O)NC(=O)NC3=O)[C@H]2[C@H](C)O1
Result: 125 µM

Ask: Another: CO[C@H]1CCN(c2noc3c(F)c4c(cc23)CC2(C(=O)NC(=O)NC2=O)[C@H]2[C@H](C)O[C@H](C)CN42)C1
Result: > 125 µM

====

Listed below: IC50 values for each entry.
Target under test: DNA gyrase subunit A/DNA gyrase subunit B (Mycobacterium tuberculosis (strain ATCC 25618 / H37Rv), UniProt P9WG45+P9WG47)
Measurement description: Inhibition of Mycobacterium tuberculosis H37Rv DNA gyrase
Units required after the number.

// solved cases for IC50 follow
C[C@@H]1CN2c3c(cc4c(-n5cncn5)noc4c3F)CC3(C(=O)NC(=O)NC3=O)[C@H]2[C@H](C)O1 18 µM
C[C@@H]1CN2c3c(cc4c(OC[C@@H]5CCC(=O)N5)noc4c3F)CC3(C(=O)NC(=O)NC3=O)[C@H]2[C@H](C)O1 2.6 µM

Ask: Endpoint output: IC50 of C[C@@H]1CN2c3c(cc4c(N5CC[C@H](N)C5)noc4c3F)CC3(C(=O)NC(=O)NC3=O)[C@H]2[C@H](C)O1 . Value?
Result: 34 µM

Ask: Moving on to C[C@@H]1CN2c3c(cc4c(N5CC[C@H](C#N)C5)noc4c3F)CC3(C(=O)NC(=O)NC3=O)[C@H]2[C@H](C)O1
Result: 10 µM

Ask: Also, C[C@@H]1CN2c3c(cc4c(N5CC[C@H](CO)C5)noc4c3F)CC3(C(=O)NC(=O)NC3=O)[C@H]2[C@H](C)O1 please.
Result: 18 µM

====

Test system: Escherichia coli
Measurement description: microbe, parasite or virus in culture
Experimental parameters: ATTC 25922, 192 h
Entries and their MIC
Please reply with the bare figure in µM and do not write the unit itself.

Consider the reported MIC for these compounds:
C[C@@H]1CN2c3c(cc4c(N5C(=O)OC[C@@H]5C)noc4c3F)CC3(C(=O)NC(=O)NC3=O)[C@H]2[C@H](C)O1 1.4
C[C@@H]1CN2c3c(cc4c(OC[C@@H]5CCC(=O)N5C)noc4c3F)CC3(C(=O)NC(=O)NC3=O)[C@H]2[C@H](C)O1 63
C[C@@H]1CN2c3c(cc4c(N5C(=O)OC[C@@H]5C)noc4c3F)CC3(C(=O)NC(=O)NC3=O)[C@H]2[C@H](C)N1 31
C[C@@H]1CN2c3c(cc4c(OC[C@H]5CNC(=O)C5)noc4c3F)CC3(C(=O)NC(=O)NC3=O)[C@H]2[C@H](C)O1 63
C[C@@H]1CN2c3c(cc4c(N5CC[C@H](F)C5)noc4c3F)CC3(C(=O)NC(=O)NC3=O)[C@H]2[C@H](C)O1 31

Ask: Which measured MIC value corresponds to CN[C@H]1CCN(c2noc3c(F)c4c(cc23)CC2(C(=O)NC(=O)NC2=O)[C@H]2[C@H](C)O[C@H](C)CN42)C1 ?
Result: 125

Ask: What do you have for C[C@@H]1CN2c3c(cc4c(N5CC[C@H](C#N)C5)noc4c3F)CC3(C(=O)NC(=O)NC3=O)[C@H]2[C@H](C)O1 ?
Result: 31

Ask: What about this compound? C[C@@H]1CN2c3c(cc4c(N5C(=O)OC[C@@H]5C)noc4c3F)CC3(C(=O)NC(=O)NC3=O)[C@H]2[C@H](C)N1C#N
Result: 3.9

Ask: Next: C[C@@H]1CN2c3c(cc4c(-n5cncn5)noc4c3F)CC3(C(=O)NC(=O)NC3=O)[C@H]2[C@H](C)O1
Result: 2

====

This listing pairs compounds with measured MIC.
Test system: Escherichia coli
Measurement description: microbe, parasite or virus in culture
Experimental parameters: ATTC 25922, 192 h

Field: example entries. Status: answers known.
C[C@@H]1CN2c3c(cc4c(OCC[C@@H]5CCC(=O)N5)noc4c3F)CC3(C(=O)NC(=O)NC3=O)[C@H]2[C@H](C)O1 > 125 µM
C[C@@H]1CN2c3c(cc4c(OC[C@@H]5CCC(=O)N5)noc4c3F)CC3(C(=O)NC(=O)NC3=O)[C@H]2[C@H](C)O1 > 125 µM
C[C@@H]1CN2c3c(cc4c(OC[C@@H]5COC(=O)N5)noc4c3F)CC3(C(=O)NC(=O)NC3=O)[C@H]2[C@H](C)O1 > 250 µM
Cc1nnc(COc2noc3c(F)c4c(cc23)CC2(C(=O)NC(=O)NC2=O)[C@H]2[C@H](C)O[C@H](C)CN42)o1 > 125 µM
Cc1nnc(-c2noc3c(F)c4c(cc23)CC2(C(=O)NC(=O)NC2=O)[C@H]2[C@H](C)[C@@H](O)[C@H](C)CN42)o1 > 250 µM

Ask: Which MIC reading was recorded for the compound C[C@@H]1CN2c3c(cc4c(N5CC[C@H](O)C5)noc4c3F)CC3(C(=O)NC(=O)NC3=O)[C@H]2[C@H](C)N1C#N ?
Result: > 125 µM

Ask: Field entry: CC(=O)N1[C@H](C)CN2c3c(cc4c(N5C(=O)OC[C@@H]5C)noc4c3F)CC3(C(=O)NC(=O)NC3=O)[C@H]2[C@@H]1C
Result: > 125 µM

Ask: Would you mind doing C[C@@H]1CN2c3c(cc4c(OC[C@@H]5CNC(=O)C5)noc4c3F)CC3(C(=O)NC(=O)NC3=O)[C@H]2[C@H](C)O1 as well?
Result: > 250 µM

Ask: Now the same for C[C@@H]1CN2c3c(cc4c(N5CCC[C@@H](O)C5)noc4c3F)CC3(C(=O)NC(=O)NC3=O)[C@H]2[C@H](C)O1
Result: > 125 µM

Ask: Thanks! And C[C@@H]1CN2c3c(cc4c(OC[C@@H]5CCC(=O)O5)noc4c3F)CC3(C(=O)NC(=O)NC3=O)[C@H]2[C@H](C)O1 ?
Result: > 125 µM

Ask: Now consider C[C@@H]1CN2c3c(cc4c(N5CC[C@@](C)(O)C5)noc4c3F)CC3(C(=O)NC(=O)NC3=O)[C@H]2[C@H](C)O1 and answer again.
Result: > 250 µM

Ask: Subsequent entry: C[C@@H]1CN2c3c(cc4c(N5CC[C@H](CO)C5)noc4c3F)CC3(C(=O)NC(=O)NC3=O)[C@H]2[C@H](C)O1
Result: > 125 µM

Ask: Next entry: C[C@@H]1CN2c3c(cc4c(N5C(=O)OC[C@@H]5C)noc4c3F)CC3(C(=O)NC(=O)NC3=O)[C@H]2[C@H](C)N1O
Result: > 125 µM
